Every entry's value here was drawn from paper PMC6323126.

B1: SIKE1 (recombinant, limits not stated) [human] / SLMAP (recombinant, limits not stated for the experiment) [human] (parent complex)
chain 1: MSCTIEKILTDAKTLLERLREHDAAAESLVDQSAALHRRVAAMREAGTALPDQYQEDASDMKDMSKYKPHILLSQENTQIRDLQQENRELWISLEEHQDALELIMSKYRKQMLQLMVAKKAVDAEPVLKAHQSHSAEIESQIDRICEMGEVMRKAVQVDDDQFCKIQEKLAQLELENKELRELLSISSESLQARKENSMDTASQAIK
chain 2: YSQELFQLSQYLQEALHREQMLEQKLATLQRLLAITQEASDTSWQALIDEDRLLSRLEVMGNQLQACSKNQTEDSLRKELIALQEDKHNYETTAKESLRRVLQEKIEVVRKLSEVERSLSNTEDECTHLKEMNERTQEELRELANKYNGAVNEIKDLSDKLKVAEGKQEEIQQKGQAEKKELQHKIDEMEEKEQELQAKIEALQADNDFTNERLTALQVRLEHLQEKTLKECSSLEHLLSKSGGDCTFIHQFIECQKKLIVEGHLTKAVEETKLSKENQTRAKESDFSDTLSPSKEKSSDDTTDAQMDEQDLNEPLAKVSLLKDDLQGAQSEIEAKQEIQHLRKELIEAQELARTSKQKCFELQALLEEERKAYRNQVEESTKQIQVLQAQLQRLHIDTENLREEKDSEITSTRDELLSARDEILLLHQAAAKVASERDTDIASLQEELKKVRAELERWRKAASEYEKEITSLQNSFQLRCQQCEDQQREEATRLQGELEKLRKEWNALETECHSLKRENVLLSSELQRQEKELHNSQKQSLELTSDLSILQMSRKELENQVGSLKEQHLRDSADLKTLLSKAENQAKDVQKEYEKTQTVLSELKLKFEMTEQEKQSITDELKQCKNNLKLLREKGNNKP

Variants of: B1
Assay: BLI; read at the end of association (about 360 s); parent: 0.13; read off a plot
Each entry below carries its recorded response.
propertyName: response

>>> observedvalue("chain 1 L19D")
"~0.045 nm"
>>> observedvalue("chain 1 M43E")
"~0.05 nm"
>>> observedvalue("chain 1 L15D")
"~0.045 nm"
>>> observedvalue("chain 1 L36D")
"~0 nm"
>>> observedvalue("chain 1 L15D, chain 1 L19D, chain 1 L36D, chain 1 M43E")
"~0.02 nm"
